Measured values drawn from ChEMBL document CHEMBL6177953 for this set.

- Experimental target: Toll-like receptor 2 (Homo sapiens, UniProt O60603)
- Sequence (O60603 whole entry): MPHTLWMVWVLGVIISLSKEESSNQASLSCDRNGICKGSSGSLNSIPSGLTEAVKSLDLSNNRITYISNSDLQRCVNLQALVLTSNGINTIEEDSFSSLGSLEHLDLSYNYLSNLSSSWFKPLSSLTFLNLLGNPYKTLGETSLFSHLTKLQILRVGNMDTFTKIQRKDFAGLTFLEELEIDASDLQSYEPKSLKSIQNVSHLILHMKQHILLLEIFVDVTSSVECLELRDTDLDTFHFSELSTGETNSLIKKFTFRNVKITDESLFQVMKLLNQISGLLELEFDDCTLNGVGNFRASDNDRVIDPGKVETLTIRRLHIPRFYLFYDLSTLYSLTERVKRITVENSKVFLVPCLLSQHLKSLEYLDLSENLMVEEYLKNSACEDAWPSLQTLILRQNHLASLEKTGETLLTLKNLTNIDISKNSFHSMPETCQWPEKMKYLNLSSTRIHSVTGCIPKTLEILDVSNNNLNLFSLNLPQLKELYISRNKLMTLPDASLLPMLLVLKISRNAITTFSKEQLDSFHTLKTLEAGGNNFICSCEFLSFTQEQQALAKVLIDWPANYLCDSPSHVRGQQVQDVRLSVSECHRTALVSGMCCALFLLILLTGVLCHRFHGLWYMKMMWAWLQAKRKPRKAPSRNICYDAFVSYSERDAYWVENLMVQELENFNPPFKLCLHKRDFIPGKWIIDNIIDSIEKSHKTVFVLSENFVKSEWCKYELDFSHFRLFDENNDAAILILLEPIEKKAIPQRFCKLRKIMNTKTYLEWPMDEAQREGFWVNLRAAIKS
Value kind: Kd (µM)
Output spec: scalar in µM, unitless text.

Ask: Suppose we examine the molecule "N#Cc1ccc(CS(=O)(=O)c2cnc3ccccc3n2)cc1" ; what Kd value has been reported?
Reply: 3.93

###

- System: AHH-1
- Assay text: Cytotoxicity against human AHH-1 cells incubated for 24 to 96 hrs by CCK-8 assay
- Type: functional, cell-based
pIC50: −log10 of the molar value.
Quick rule for you: pIC50 at 5 or higher means Condition met, lower means Condition not met.

N#Cc1ccc(CSc2cnc3ccccc3n2)cc1 ... Condition not met

Ask: // inclusive: pIC50 at least 5? input: "COc1ccc(CSc2cnc3cc(Br)ccc3n2)cc1"
Reply: Condition not met

Ask: Quick check, pIC50 >= 5? "O=C(O)c1ccc(CS(=O)(=O)c2cnc3ccccc3n2)cc1"
Reply: Condition not met

Ask: Dear colleague, could you confirm whether O=C([O-])c1ccc(/C=C/S(=O)(=O)Cc2ccc(Cl)cc2)cc1.[Na+] [RECILISIB SODIUM] has pIC50 at or above 5?
Reply: Condition not met

Ask: Check the entry "O=C(O)c1ccc(CS(=O)(=O)c2cnc3cc(Cl)ccc3n2)cc1" : does pIC50 equal or exceed 5?
Reply: Condition not met

Ask: Exam item: decide whether the reported pIC50 for "N#Cc1ccc(CS(=O)(=O)c2cnc3cc(Cl)ccc3n2)cc1" is at least 5.
Reply: Condition met

Ask: Assess whether reported pIC50 for "Clc1ccc(CSc2cnc3ccccc3n2)cc1" sits at 5 or higher.
Reply: Condition not met

Ask: Tell me whether pIC50 is at least 5 here: "Cc1ccc(CS(=O)(=O)c2cnc3ccccc3n2)cc1"
Reply: Condition not met

Ask: Item "Cc1ccc(CSc2cnc3ccccc3n2)cc1" with pIC50 of 5 or above?
Reply: Condition not met

Ask: Given "O=S(=O)(Cc1ccc(Cl)cc1)c1cnc2ccccc2n1" , state whether its pIC50 is at least 5.
Reply: Condition met

Ask: Could you verify whether the entry [O-][S+](Cc1ccccc1)c1cnc2cc(Cl)ccc2n1 (configuration not stated) shows pIC50 of no less than 5?
Reply: Condition met

###

- System: AHH-1
- Assay text: Antiradiation activity in human AHH-1 cells assessed as increase in cell viability at 2.5 to 10 micromol/L pre-treated with compound for 24 hrs followed by irradiation at 4 Gy measured after 24 hrs by CCK-8 assay
- Assay type: functional, cell-based
- Condition set: dose 2.5-10 µmol/L, time 48.0 hrs
Active and inactive are the calls of the source. No cut-off for these calls is given here.
Value kind: Activity

Known Activity results, listed for orientation:
N#Cc1ccc(CSc2cnc3ccccc3n2)cc1 ... Active
Cc1ccc(CS(=O)(=O)c2cnc3ccccc3n2)cc1 ... Active
O=S(=O)(Cc1ccc(Br)cc1)c1cnc2cc(Cl)ccc2n1 ... Active
COc1ccc(CSc2cnc3cc(Cl)ccc3n2)cc1 ... Active
N#Cc1ccc(CSc2cnc3cc(Cl)ccc3n2)cc1 ... Active

Ask: Entry under review: "Clc1ccc(CSc2cnc3cc(Cl)ccc3n2)cc1" . Reported Activity?
Reply: Active

Ask: Would you kindly share the measured Activity for "COc1ccc(CSc2cnc3ccccc3n2)cc1" ?
Reply: Active

Ask: Would you mind telling me what Activity value was observed for "O=C(O)c1ccc(CS(=O)(=O)c2cnc3cc(Cl)ccc3n2)cc1" ?
Reply: Active

Ask: Can you share its Activity? I mean this molecule: "O=C(O)c1ccc(CSc2cnc3cc(Cl)ccc3n2)cc1"
Reply: Active

Ask: Please give the measured Activity for this molecule: "O=S(=O)(Cc1ccc(F)cc1)c1cnc2cc(Cl)ccc2n1"
Reply: Active

Ask: Please look up its Activity: O=C([O-])c1ccc(/C=C/S(=O)(=O)Cc2ccc(Cl)cc2)cc1.[Na+] [RECILISIB SODIUM]
Reply: Active

Ask: // Activity lookup, key: "O=S(=O)(Cc1ccc(Br)cc1)c1cnc2ccccc2n1"
Reply: Active
